# Tested on: NCI-H841 complex tumor spheroid viability
# EXPERIMENT DESCRIPTION: Anticancer human tumor NCI-H841 cell line growth inhibition;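 also: spheroids exposed to compounds for 7 days before readout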
# EXPERIMENTAL CONDITIONS: curve of first compound; second compound 0.0949 µM
# Method: Multicellular complex tumor spheroid response to DNA repair inhibitors in combination with DNA-damaging drugs This study explores the anticancer activities of DNA-damaging drugs and inhibitors of DNA damage repair, both as single agents and in combinations. […] Twenty-six patient-derived or established malignant cell lines were evaluated representing sarcoma, melanoma, small cell lung cancer (SCLC), non-small cell lung cancer (NSCLC), as well as bladder, ovarian and pancreatic cancers. […]
pIC50: −log10 of the molar value.
Answer each item with its documented pIC50.

Cn1ncnc1[C@H]1c2n[nH]c(=O)c3cc(F)cc(c23)N[C@@H]1c1ccc(F)cc1 + CC[C@@]1(O)C(=O)OCc2c1cc1n(c2=O)Cc2cc3c(CN(C)C)c(O)ccc3nc2-1; > 8.02

Items follow; give pIC50 for each.
1. O=C(c1cc(Cc2n[nH]c(=O)c3ccccc23)ccc1F)N1CCN(C(=O)C2CC2)CC1 + CC[C@@]1(O)C(=O)OCc2c1cc1n(c2=O)Cc2cc3c(CN(C)C)c(O)ccc3nc2-1
2. Cc1sc2c(c1C)C(c1ccc(Cl)cc1)=NC(CC(=O)Nc1ccc(O)cc1)c1nnc(C)n1-2 (stereo not given) + CC[C@@]1(O)C(=O)OCc2c1cc1n(c2=O)Cc2cc3c(CN(C)C)c(O)ccc3nc2-1
3. Cc1cc(C)c(CNC(=O)c2cc(-c3ccc(CN4CCOCC4)cc3)cc3c2cnn3C2CCCC2)c(=O)[nH]1 + CC[C@@]1(O)C(=O)OCc2c1cc1n(c2=O)Cc2cc3c(CN(C)C)c(O)ccc3nc2-1
4. CC(C)n1c(=O)n(C)c2cnc3cc(F)c(-c4ccc(OCCCN5CCCCC5)nc4)cc3c21 + CC[C@@]1(O)C(=O)OCc2c1cc1n(c2=O)Cc2cc3c(CN(C)C)c(O)ccc3nc2-1

[A]
> 7.02
> 8.02
> 7.50
> 7.50

###

# Test system: NCI-H841 complex tumor spheroid viability
# EXPERIMENT DESCRIPTION: Anticancer human tumor NCI-H841 cell line growth inhibition;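 also: spheroids exposed to compounds for 7 days before readout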;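 as to viability, T/C: 100% = DMSO vehicle control wells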
# EXPERIMENTAL CONDITIONS: second compound 0.03 µM; first compound 3.16 µM; stronger effect = lower value
VALUE KIND: viability, T/C

Known viability, T/C results, listed for orientation:
Cc1cc(C)c(CNC(=O)c2cc(-c3ccc(CN4CCOCC4)cc3)cc3c2cnn3C2CCCC2)c(=O)[nH]1 + CC[C@@]1(O)C(=O)OCc2c1cc1n(c2=O)Cc2cc3c(CN(C)C)c(O)ccc3nc2-1; 1.14%
COc1ccc([C@@H](O)c2cc(-c3ncnc4cc(N5CCOCC5)ccc34)c(F)cc2Cl)nn1 + CC[C@@]1(O)C(=O)OCc2c1cc1n(c2=O)Cc2cc3c(CN(C)C)c(O)ccc3nc2-1; 1.8%
CC(C)n1c(=O)n(C)c2cnc3cc(F)c(-c4ccc(OCCCN5CCCCC5)nc4)cc3c21 + CC[C@@]1(O)C(=O)OCc2c1cc1n(c2=O)Cc2cc3c(CN(C)C)c(O)ccc3nc2-1; 1.9%

Items follow; give viability, T/C for each.
1. COc1cc(C)[nH]c(=O)c1CN1CCc2c(Cl)cc(C(OC)C3COC3)c(Cl)c2C1=O (stereo unspecified) + CC[C@@]1(O)C(=O)OCc2c1cc1n(c2=O)Cc2cc3c(CN(C)C)c(O)ccc3nc2-1
2. CC1COCCN1c1cc(-c2ccnn2C)c2ccnc(-c3ccn[nH]3)c2n1 (stereo unspecified) + CC[C@@]1(O)C(=O)OCc2c1cc1n(c2=O)Cc2cc3c(CN(C)C)c(O)ccc3nc2-1
3. [2H]c1nc(C)nc([2H])c1-c1cc(NC[C@@H](C)c2cccc3c(C(=O)NC)ccnc23)ncn1 + CC[C@@]1(O)C(=O)OCc2c1cc1n(c2=O)Cc2cc3c(CN(C)C)c(O)ccc3nc2-1

[A]
1: 2.71%; 2: 1.08%; 3: 1.43%
